// values below are reported protein stability index
B1: FAM46D (parent)
chain: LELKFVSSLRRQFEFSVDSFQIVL

- Variants of: B1
- assay notes: protein stability index of a GFP-peptide fusion (GPS, HEK-293T) (PSI 1-6); higher = more stable;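 further: lentivirally expressed fusions sorted by FACS into six bins by GFP to DsRed ratio, PSI derived from sequencing read proportions per bin multiplied by bin number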
- assay setup: c terminus: a fixed tail appended
Just the number, please, no unit after it.

Solved entries (count: 3):
residues: LELKFVASLRRQFEFSVDSFQIVL [S7A]
assay metric: protein stability index
assay result: 3.21
//
residues: LELKFVSSLRRQFEGSVDSFQIVL [F15G]
assay metric: protein stability index
assay result: 3.1
//
residues: LELFFVSSLRRQFEFSVDSFQIVL [K4F]
assay metric: protein stability index
assay result: 3.11

Req: Answer with reported protein stability index of LELKFVSSLRRGFEFSVDSFQIVL [Q12G]
Resp: 2.76

Req: Given LELKFVSSLRRQFEFSVDSFQIVF [L24F] , respond with its protein stability index.
Resp: 3.74

Req: Answer with reported protein stability index of LELKFVSSLRRQFEFSVDSAQIVL [F20A]
Resp: 2.99

Req: Give recorded protein stability index. LELKFVSSLRKQFEFSVDSFQIVL [R11K]
Resp: 3.21

Req: Read the entry LELKFVSSLRRCFEFSVDSFQIVL [Q12C] and write its reported protein stability index.
Resp: 1.78

Req: In one line, give reported protein stability index of the entry LELKFVSSLRRYFEFSVDSFQIVL [Q12Y] .
Resp: 2.8

Req: Specify measured protein stability index for LELKFVSSLHRQFEFSVDSFQIVL [R10H] .
Resp: 2.93

Req: Read the entry LELKFVSSQRRQFEFSVDSFQIVL [L9Q] and write its reported protein stability index.
Resp: 3.29

Req: Supply recorded protein stability index for LELKFVSQLRRQFEFSVDSFQIVL [S8Q] here.
Resp: 2.95
